- protocol_notes: AUC (0 to infinity) in BALB/c mouse at 50 mg/kg,iv measured upto 24 hrs by HPLC-MS/MS analysis
- Format: ADME, organism-based
- conditions: in vivo
result_type: AUC(0-inf)

Challenge: Tell me the measured AUC(0-inf) of CCN(c1cc(-c2ccc([C@@H]3C[C@H]3N(CC3CCOCC3)C(=O)OC(C)(C)C)cc2)cc(C(=O)NCc2c(C)cc(C)[nH]c2=O)c1C)C1CCOCC1 (racemic) , please.
Response given: 126 µg·h/mL

###

- protocol_notes: Clearance in BALB/c mouse at 50 mg/kg,ip measured upto 24 hrs by HPLC-MS/MS analysis
- Assay type: ADME, organism-based
- conditions: in vivo
result_type: CL/F (mL/min/kg)
Numbers only, in mL/min/kg.

Challenge: I'd like to know its CL/F. The compound in question is CCN(c1cc(-c2ccc([C@@H]3C[C@H]3N(CC3CCOCC3)C(=O)OC(C)(C)C)cc2)cc(C(=O)NCc2c(C)cc(C)[nH]c2=O)c1C)C1CCOCC1 (racemic)
Response given: 8.33

###

- protocol_notes: Half life in BALB/c mouse at 50 mg/kg,ip measured upto 24 hrs by HPLC-MS/MS analysis
- Format: ADME, organism-based
- conditions: in vivo
result_type: half-life (h)
Numbers only, in h.

Challenge: Entry under review: CCN(c1cc(-c2ccc([C@@H]3C[C@H]3N(CC3CCOCC3)C(=O)OC(C)(C)C)cc2)cc(C(=O)NCc2c(C)cc(C)[nH]c2=O)c1C)C1CCOCC1 (racemic) . Reported half-life?
Response given: 3.5

###

- protocol_notes: Metabolic stability in Sprague-Dawley rat hepatocyte assessed as compound remaining at 20 uM by HPLC-MS/MS analysis
- Format: ADME, cell-based
- conditions: hepatocytes, read-out: Stability
result_type: remaining at 20 µM

Challenge: Given the entry CCN(c1cc(-c2ccc([C@@H]3C[C@H]3N(CC3CCOCC3)C(=O)OC(C)(C)C)cc2)cc(C(=O)NCc2c(C)cc(C)[nH]c2=O)c1C)C1CCOCC1 (racemic) , report its measured remaining at 20 µM.
Response given: 100%

###

- protocol_notes: Metabolic stability in Sprague-Dawley rat hepatocyte assessed as compound remaining at 20 uM incubated for 180 mins by HPLC-MS/MS analysis
- Assay type: ADME, cell-based
- conditions: hepatocytes, read-out: Stability
result_type: remaining at 3 h, 20 µM

Challenge: Any idea what its remaining at 3 h, 20 µM is? The compound is CCN(c1cc(-c2ccc([C@@H]3C[C@H]3N(CC3CCOCC3)C(=O)OC(C)(C)C)cc2)cc(C(=O)NCc2c(C)cc(C)[nH]c2=O)c1C)C1CCOCC1 (racemic)
Response given: 70%

###

- measurement_target: Lysine-specific histone demethylase 1A (Homo sapiens, UniProt O60341)
- protocol_notes: Inhibition of recombinant human LSD1 using Histone H3 as fluorometric substrate incubated for 30 mins by HRP based plate reader assay
Consider the following molecules; for each one, report its IC50.

These solved cases illustrate the format of a correct answer.
Challenge: # lookup: IC50 of CCN(c1cc(-c2ccc([C@@H]3C[C@H]3N(Cc3ccccc3F)C(=O)OC(C)(C)C)cc2)cc(C(=O)NCc2c(C)cc(C)[nH]c2=O)c1C)C1CCOCC1 (racemic)
Response given: > 3 µM

Challenge: Which measured IC50 value corresponds to CCN(c1cc(-c2ccc([C@@H]3C[C@H]3N(CC(=O)N3CCOCC3)C(=O)OC(C)(C)C)cc2)cc(C(=O)NCc2c(C)cc(C)[nH]c2=O)c1C)C1CCOCC1 (racemic) ?
Response given: > 3 µM

Challenge: Request the reported IC50 associated with CCN(c1cc(-c2cccc([C@H]3C[C@@H]3N(C(=O)OC(C)(C)C)C3CCOCC3)c2)cc(C(=O)NCc2c(C)cc(C)[nH]c2=O)c1C)C1CCOCC1 (racemic)
Response given: > 3 µM

Batch of 8 molecules: report IC50 for each.
1. CCN(c1cc(-c2ccc([C@@H]3C[C@H]3N(C(=O)OC(C)(C)C)C3CCCCC3)cc2)cc(C(=O)NCc2c(C)cc(C)[nH]c2=O)c1C)C1CCOCC1 (racemic)
2. CCN(c1cc(-c2ccc([C@@H]3C[C@H]3N(C(=O)OC(C)(C)C)C3CCOCC3)cc2)cc(C(=O)NCc2c(C)cc(C)[nH]c2=O)c1C)C1CCOCC1 (racemic)
3. CCN(c1cc(-c2cccc([C@H]3C[C@@H]3NC(=O)OC(C)(C)C)c2)cc(C(=O)NCc2c(C)cc(C)[nH]c2=O)c1C)C1CCOCC1 (racemic)
4. CCN(c1cc(-c2ccc([C@@H]3C[C@H]3NC(=O)OC(C)(C)C)cc2)cc(C(=O)NCc2c(C)cc(C)[nH]c2=O)c1C)C1CCOCC1 (racemic)
5. CCN(c1cc(-c2ccc([C@@H]3C[C@H]3N(CC(=O)N3CCN(C(=O)OC(C)(C)C)CC3)C(=O)OC(C)(C)C)cc2)cc(C(=O)NCc2c(C)cc(C)[nH]c2=O)c1C)C1CCOCC1 (racemic)
6. CCN(c1cc(-c2cccc([C@@H]3C[C@H]3N)c2)cc(C(=O)NCc2c(C)cc(C)[nH]c2=O)c1C)C1CCOCC1 (racemic)
7. CCN(c1cc(-c2ccc([C@@H]3C[C@H]3N(CC3CC3)C(=O)OC(C)(C)C)cc2)cc(C(=O)NCc2c(C)cc(C)[nH]c2=O)c1C)C1CCOCC1 (racemic)
8. CCN(c1cc(-c2ccc([C@@H]3C[C@H]3N(Cc3ccccc3)C(=O)OC(C)(C)C)cc2)cc(C(=O)NCc2c(C)cc(C)[nH]c2=O)c1C)C1CCOCC1 (racemic)

Response given:
["> 3 µM", "> 3 µM", "> 3 µM", "> 3 µM", "> 3 µM", "> 3 µM", "> 3 µM", "> 3 µM"]

Provide each entry's IC50 from the list below.
1. CCN(c1cc(-c2cccc([C@H]3C[C@@H]3N(CC3CCOCC3)C(=O)OC(C)(C)C)c2)cc(C(=O)NCc2c(C)cc(C)[nH]c2=O)c1C)C1CCOCC1 (racemic)
2. CCN(c1cc(-c2ccc([C@@H]3C[C@H]3N(CC3CCOCC3)C(=O)OC(C)(C)C)cc2)cc(C(=O)NCc2c(C)cc(C)[nH]c2=O)c1C)C1CCOCC1 (racemic)
3. CCN(c1cc(-c2ccc([C@@H]3C[C@H]3N(Cc3ccccc3OC)C(=O)OC(C)(C)C)cc2)cc(C(=O)NCc2c(C)cc(C)[nH]c2=O)c1C)C1CCOCC1 (racemic)

Response given:
1. > 3 µM
2. > 3 µM
3. > 3 µM

###

- protocol_notes: Metabolic stability in Sprague-Dawley rat hepatocyte assessed as compound remaining at 20 uM incubated for 60 mins by HPLC-MS/MS analysis
- Type: ADME, cell-based
- conditions: hepatocytes, read-out: Stability
result_type: remaining at 1 h, 20 µM (%)
Numbers only, in %.

Challenge: Which remaining at 1 h, 20 µM is listed for CCN(c1cc(-c2ccc([C@@H]3C[C@H]3N(CC3CCOCC3)C(=O)OC(C)(C)C)cc2)cc(C(=O)NCc2c(C)cc(C)[nH]c2=O)c1C)C1CCOCC1 (racemic) ?
Response given: 84.3

###

- protocol_notes: Tmax in BALB/c mouse at 50 mg/kg,po measured upto 24 hrs by HPLC-MS/MS analysis
- Assay type: ADME, organism-based
- conditions: in vivo
result_type: Tmax (h)
One number for each entry, in h.

Challenge: So what does the record say about Tmax for CCN(c1cc(-c2ccc([C@@H]3C[C@H]3N(CC3CCOCC3)C(=O)OC(C)(C)C)cc2)cc(C(=O)NCc2c(C)cc(C)[nH]c2=O)c1C)C1CCOCC1 (racemic) ?
Response given: 1

###

- protocol_notes: Metabolic stability in Sprague-Dawley rat hepatocyte assessed as compound remaining at 20 uM incubated for 120 mins by HPLC-MS/MS analysis
- Type: ADME, cell-based
- conditions: hepatocytes, read-out: Stability
result_type: remaining at 2 h, 20 µM (%)
Numbers only, in %.

Challenge: Recorded remaining at 2 h, 20 µM for CCN(c1cc(-c2ccc([C@@H]3C[C@H]3N(CC3CCOCC3)C(=O)OC(C)(C)C)cc2)cc(C(=O)NCc2c(C)cc(C)[nH]c2=O)c1C)C1CCOCC1 (racemic) , please?
Response given: 75.8

###

- protocol_notes: Clearance in BALB/c mouse at 50 mg/kg,po measured upto 24 hrs by HPLC-MS/MS analysis
- Type: ADME, organism-based
- conditions: in vivo
result_type: CL/F
Please state the value followed by its unit.

Challenge: State the recorded CL/F for this entry: CCN(c1cc(-c2ccc([C@@H]3C[C@H]3N(CC3CCOCC3)C(=O)OC(C)(C)C)cc2)cc(C(=O)NCc2c(C)cc(C)[nH]c2=O)c1C)C1CCOCC1 (racemic)
Response given: 20 mL/min/kg
